Test system: anaesthetized dog
Experiment: Antiangorous activity on anaesthetized dog: consumption of oxygen in the left ventricule and cardiac effort (KATZ's index)
Format: in vivo
Details: 1.25 mg/kg i.v. slow perfusion
Protocol: The antiangorous activity was tested on an anaesthetized dog (sodium pentobarbital 30 mg/kg/i.v.). […] The coronary venous flow was measured at the coronary venous sinus by means of a modified Morawitz cannula, introduced under radioscopic control. […] The cardiac frequency was estimated from the electrocardiogram recorded with D2 derivation. […]
Attribute: Diminution in the cardiac effort (IK): in time
Test readout: Diminution in the cardiac effort (IK): in time

                                   molecule             system  result
0  COc1cc(/C=C/C(=O)N2CCN(CC(O)COc3ccc(OC)c4c3OCCO4)CC2)cc(OC)c1OC (stereo not drawn)  anaesthetized dog  30 min
1  CNC(=O)c1ccc(OCC(O)CN2CCN(C(=O)/C=C/c3cc(OC)c(OC)c(OC)c3)CC2)cc1 (stereo not drawn)  anaesthetized dog  30 min
2  COc1cc(/C=C/C(=O)N2CCN(CC(O)COc3ccc(NC(C)=O)c4c3CCC4)CC2)cc(OC)c1OC (stereo not drawn)  anaesthetized dog  30 min

Data credit: patent US4178442A
